- System: SUM149PT spheroids with HUVEC/MSC, viability
- TEST_DETAILS: Anticancer human tumor SUM149PT cell line growth inhibition [GQUAD];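 further: spheroids exposed to drugs for seven days before readout; percent viability relative to DMSO vehicle control taken as 100%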
- CONDITION: second compound 3.16 µM; first compound 0.0999 µM; stronger effect = lower value
ASSAY_READOUT: viability, T/C (%)
Report only the number, with the unit % understood.

COMPOUND	UNIT	viability, T/C
CCc1c2c(nc3ccc(O)cc13)-c1cc3c(c(=O)n1C2)COC(=O)[C@]3(O)CC + CN(C)c1ccc(Nc2c3ccc(NC(=O)CCN4CCCC4)cc3nc3cc(NC(=O)CCN4CCCC4)ccc23)cc1	%	35.6
Cn1ncnc1[C@H]1c2n[nH]c(=O)c3cc(F)cc(c23)N[C@@H]1c1ccc(F)cc1 + CN(C)c1ccc(Nc2c3ccc(NC(=O)CCN4CCCC4)cc3nc3cc(NC(=O)CCN4CCCC4)ccc23)cc1	%	73.8
CC[C@@]1(O)C(=O)OCc2c1cc1n(c2=O)Cc2cc3c(CN(C)C)c(O)ccc3nc2-1 + Cc1[nH]c2ccc(F)cc2c1-c1nc2c3cccnc3c3ncccc3c2[nH]1	%	43.1

Prompt line: # returns recorded viability, T/C (system: SUM149PT spheroids with HUVEC/MSC, viability) for Cc1[nH]c2ccccc2c1CCNCc1ccc(/C=C/C(=O)NO)cc1 + Cc1[nH]c2ccc(F)cc2c1-c1nc2c3cccnc3c3ncccc3c2[nH]1
Response line: 89.4

Prompt line: Next compound up: CC[C@@]1(O)C(=O)OCc2c1cc1n(c2=O)Cc2cc3c(CN(C)C)c(O)ccc3nc2-1 + Cc1cnc(CNC(=O)c2c(=O)c3ccc(N4CCCN(C)CC4)nc3n3c2sc2ccccc23)cn1
Response line: 36.3

* * *

- Test system: SUM149PT spheroids with HUVEC/MSC, viability
- TEST_DETAILS: Anticancer human tumor SUM149PT cell line growth inhibition [GQUAD]; active = viability on the fitted dose curve at most 10% of control; inactive = the rest;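 further: spheroids exposed to drugs for seven days before readout; percent viability relative to DMSO vehicle control taken as 100%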
- CONDITION: second compound 0.1 µM; first compound 1 µM
Allowed answers: active, inactive

COMPOUND	ASSIGNED_CATEGORY
C#Cc1c(F)ccc2cc(O)cc(-c3ncc4c(N5CC6CCC(C5)N6)nc(OCC56CCCN5CC(F)C6)nc4c3F)c12 (stereo not given) + CN(C)c1ccc(Nc2c3ccc(NC(=O)CCN4CCCC4)cc3nc3cc(NC(=O)CCN4CCCC4)ccc23)cc1	inactive

Prompt line: Outcome? COc1ccc([C@@H](O)c2cc(-c3ncnc4cc(N5CCOCC5)ccc34)c(F)cc2Cl)nn1 + CN(C)c1ccc(Nc2c3ccc(NC(=O)CCN4CCCC4)cc3nc3cc(NC(=O)CCN4CCCC4)ccc23)cc1
Response line: inactive

Prompt line: Next compound up: COc1ccc([C@@H](O)c2cc(-c3ncnc4cc(N5CCOCC5)ccc34)c(F)cc2Cl)nn1 + Cc1[nH]c2ccc(F)cc2c1-c1nc2c3cccnc3c3ncccc3c2[nH]1
Response line: inactive

Prompt line: Next compound up: CC1COCCN1c1cc(C2(O)CC3CCC(C2)O3)c2cnn(-c3ccn[nH]3)c2n1 (stereo not given) + Cc1[nH]c2ccc(F)cc2c1-c1nc2c3cccnc3c3ncccc3c2[nH]1
Response line: inactive

Prompt line: Next compound up: CC(C)n1c(=O)n(C)c2cnc3cc(F)c(-c4ccc(OCCCN5CCCCC5)nc4)cc3c21 + Cc1[nH]c2ccc(F)cc2c1-c1nc2c3cccnc3c3ncccc3c2[nH]1
Response line: inactive

Prompt line: Next compound up: COc1ncnc(C2CC2)c1-c1ncc2cnn(Cc3ccc(-c4nc(C(F)(F)F)cn4C(C)C)cc3)c2n1 + Cc1cnc(CNC(=O)c2c(=O)c3ccc(N4CCCN(C)CC4)nc3n3c2sc2ccccc23)cn1
Response line: inactive

Reference source: PubChem BioAssay AID2060484
